Molecular target: hGcgR (Homo sapiens)
Sequence (P47871 26-477): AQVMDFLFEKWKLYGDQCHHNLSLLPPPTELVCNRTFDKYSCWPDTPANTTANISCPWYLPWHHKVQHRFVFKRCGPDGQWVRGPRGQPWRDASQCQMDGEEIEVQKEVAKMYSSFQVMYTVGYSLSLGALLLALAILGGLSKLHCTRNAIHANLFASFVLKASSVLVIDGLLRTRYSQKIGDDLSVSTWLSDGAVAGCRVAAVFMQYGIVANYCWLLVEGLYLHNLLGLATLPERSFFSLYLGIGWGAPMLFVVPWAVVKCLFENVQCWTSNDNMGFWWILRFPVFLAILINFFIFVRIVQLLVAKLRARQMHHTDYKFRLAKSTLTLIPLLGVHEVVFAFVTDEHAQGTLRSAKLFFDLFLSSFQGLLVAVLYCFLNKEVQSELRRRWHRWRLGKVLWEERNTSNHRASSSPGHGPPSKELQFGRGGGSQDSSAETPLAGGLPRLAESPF
Test: Functional cAMP activation in the presence of 0.1% casein (no HSA);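 further: intracellular cAMP rise after 30 min at 37 °C, read by HTRF against a cAMP standard curve, scaled from buffer only (0%) to maximal control ligand response (100%)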
Format: cell-based
Conditions: in the presence of 0.1% casein (no HSA); geometric mean; read-out: Relative cAMP EC50, hGcgR
Starred links: 1 amine or outer side, 2 acyl side, 3 side chain; linkers in the order of their positions; H or OH if unused. Non-standard residues stand in square brackets, D forms with d. Groups on a side chain read outwards from the residue. No end group written: not given here. *: point of attachment. C20 diacid = O=C(O)CCCCCCCCCCCCCCCCCCC(=O)*; C18 diacid = O=C(O)CCCCCCCCCCCCCCCCC(=O)*; αMePhe(2-F) = C[C@](N)(Cc1ccccc1F)C(=O)O; γGlu = O=C(O)[C@H](CCC(=O)[*:2])N[*:1]; αMe4Pal = C[C@](N)(Cc1ccncc1)C(=O)O; αMeY = C[C@](N)(Cc1ccc(O)cc1)C(=O)O; 4Pal = N[C@@H](Cc1ccncc1)C(=O)O; αMeL = CC(C)C[C@](C)(N)C(=O)O; αMeS = C[C@](N)(CO)C(=O)O; Orn = NCCC[C@H](N)C(=O)O; AEEA = NCCOCCOCC(=O)O; Aib = CC(C)(N)C(=O)O
experimental-readout: EC50 (nM)

substance	numeric-readout
Y[Aib]QGTFTSD[4Pal]SQ[αMeL]LDKK([AEEA-γGlu-C18 diacid])AQ[αMe4Pal]AFIE[αMeY]LIEGGPSSGAPPPEGS-NH2 [Example 852]	2.26
H-Y[Aib]QGTFTSDFSK[αMeL]LDKK([AEEA-γGlu-C20 diacid])AQ[Aib]AFIEYLLAGGPSSGEPPPSSG-NH2 [Example 7]	5.05
H-Y[Aib]QGTFTSDFS[Orn][αMeL]LDKK([AEEA-AEEA-γGlu-C18 diacid])AQ[Aib]AFIEYLLE[Aib]GPSSGAPPPSGE-NH2 [Example 111]	4.25
H-Y[Aib]QGTFTSDFSK[αMeL]LDKK([AEEA-AEEA-γGlu-C18 diacid])AQ[Aib]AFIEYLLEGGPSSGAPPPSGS-NH2 [Example 142]	3.49
H-Y[Aib]QGTFTSD[4Pal]S[Orn][αMeL]LD[Orn]K([Glu-Glu-γGlu-C18 diacid])AQ[Aib]AFIE[αMeY]LLEGGPSSGAPPPSGSEE-NH2 [Example 1067]	12.6
H-Y[Aib]QGTFTSDFS[Orn][αMeL]LDKK([AEEA-AEEA-γGlu-C18 diacid])AQ[Aib]AFIEYLLE[Aib]G[4Pal]SSGAPPPSGE-NH2 [Example 189]	6.28
H-Y[Aib]QGT[αMePhe(2-F)]TSDYSKILDKIAQK([AEEA-γGlu-C20 diacid])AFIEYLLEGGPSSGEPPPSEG-NH2 [Example 311]	2.08
H-Y[Aib]QGTFTSDFS[Orn][αMeL]LDKK([AEEA-γGlu-C18 diacid])AQ[Aib]AFIEWLLEGGSSSGAPPPSGE-NH2 [Example 172]	3.38
H-Y[Aib]QGT[αMePhe(2-F)]TSD[4Pal][αMeS]I[αMeL]LD[Orn]K([AEEA-γGlu-C18 diacid])AQ[αMe4Pal]EFI[dE][αMeY]LVEGGPSSGAPPPESE-NH2 [Example 1156]	2.94
H-Y[Aib]QGTFTSD[4Pal]SR[αMeL]LDKK([AEEA-γGlu-C18 diacid])AQ[Aib]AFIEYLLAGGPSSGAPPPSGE-NH2 [Example 113]	12
Y[Aib]QGTFTSDYSI[αMeL]LDKQAAK([AEEA-AEEA-γGlu-C20 diacid])QFIEYLIA[Aib]GPSSGEPPPSEG-NH2 [Example 349]	5.12
Y[Aib]QGTFTSDFSK[αMeL]LDKK([AEEA-γGlu-C18 diacid])AQ[Aib]AFIEYLIE[Aib]GPSSGAPPPSGS-NH2 [Example 797]	3.78
H-Y[Aib]QGTFTSD[4Pal]SQ[αMeL]LD[Orn]K([γGlu-γGlu-C18 diacid])AQ[αMe4Pal]AFIE[αMeY]LIA[Aib]GPSSGAPPPSGSEE-NH2 [Example 1107]	5.66
H-Y[Aib]QGTFTSDFS[Orn][αMeL]LDKK([AEEA-AEEA-γGlu-C18 diacid])AQ[Aib]AFIEYLLE[Aib]GPSSGEPPPEGS-NH2 [Example 195]	3.1
H-Y[Aib]QGTFTSDYSI[αMeL]LDKQAAK([AEEA-AEEA-γGlu-C20 diacid])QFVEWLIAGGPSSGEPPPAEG-NH2 [Example 332]	11.8
H-Y[Aib]QGTFTSDFSK[αMeL]LDKK([AEEA-γGlu-C18 diacid])AQ[Aib]QFIEYLLEGGPSSGAPPPSEG-NH2 [Example 51]	5.15
H-Y[Aib]QGTFTSDFSK[αMeL]LDKK([AEEA-γGlu-C18 diacid])AQ[Aib]AFIEYLLE[Aib]GPSSGAPPPSEG-NH2 [Example 57]	4.37
H-Y[Aib]QGTFTSDFS[Orn][αMeL]LDKK([γGlu-AEEA-γGlu-C18 diacid])AQ[Aib]AFIEYLLE[Aib]GPSSGAPPPSGS-NH2 [Example 193]	4.51
H-Y[Aib]QGTFTSDFSK[αMeL]LDKK([AEEA-γGlu-C20 diacid])AQ[Aib]AFIEYLLAGGPSSGAPPPSGG-NH2 [Example 12]	12.2
H-Y[Aib]QGTFTSD[4Pal]SQ[αMeL]LD[Orn]K([AEEA-γGlu-C18 diacid])AQ[αMe4Pal]AFIE[αMeY]LIE[Aib]GPSSGEPPPSGSEE-NH2 [Example 1097]	6.16
H-Y[Aib]QGTFTSDFS[Orn][αMeL]LDKK([AEEA-γGlu-C18 diacid])AQ[Aib]AFIEYLLEGGHSSGAPPPGGS-NH2 [Example 162]	4.72
H-Y[Aib]QGTFTSD[4Pal][αMeS]Q[αMeL]LD[Orn]K([dE-γGlu-C18 diacid])AQ[αMe4Pal]QFIE[αMeY]LIA[Aib]GPSSGEPPPSGGGE-NH2 [Example 1182]	1.24
H-Y[Aib]QGTFTSD[4Pal]SQ[αMeL]LD[Orn]K([γGlu-γGlu-C18 diacid])AQ[αMe4Pal]AFIEYLIE[Aib]GPSSGAPPPSGSEE-NH2 [Example 937]	5.52

Cited source: patent US20240270821A1
